test system: 843782-103-R-J1-PDC complex spheroid viability; assay: Anticancer human tumor 843782-103-R-J1-PDC patient-derived lung adenocarcinoma cell line growth inhibition [RAS]; settings: compound 0.1 µM; stronger effect = lower value
PROPERTY NAME: viability, T/C

CC(C)n1nc(-c2ccc3oc(N)nc3c2)c2c(N)ncnc21    28.8% [middle of 4 runs]

### Prompt I have this compound here, C#Cc1c(F)ccc2cc(O)cc(-c3ncc4c(N5CC6CCC(C5)N6)nc(OCC56CCCN5CC(F)C6)nc4c3F)c12 (centres undefined) , and I need its recorded viability, T/C.
### Response 106% [middle of 8 runs]

### Prompt I have this compound here, C[C@@H](NC(=O)c1ncnc(N)c1Cl)c1ncc(C(=O)Nc2cc(C(F)(F)F)c(Cl)cn2)s1 , and I need its recorded viability, T/C.
### Response 105% [middle of 4 runs]

### Prompt I have this compound here, CCC(CC)c1cc(NC2CCC(N)C2)n2nccc2n1 (centres undefined) , and I need its recorded viability, T/C.
### Response 107% [middle of 4 runs]

---

system: 843782-103-R-J1-PDC complex spheroid viability; test: Anticancer human tumor 843782-103-R-J1-PDC cell line growth inhibition [RAS]; conditions: second compound 0.316 µM; first compound 0.1 µM; stronger effect = lower value;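 note: viability read after seven days of compound exposure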
PROPERTY NAME: viability, T/C (%)
Give the number; % is assumed, so skip it.

In the examples that follow, each entry is paired with its recorded viability, T/C.
C=CC(=O)Nc1cc(Nc2nccc(-c3cn(C)c4ccccc34)n2)c(OC)cc1N(C)CCN(C)C + C#Cc1c(F)ccc2cc(O)cc(-c3ncc4c(N5CC6CCC(C5)N6)nc(OCC56CCCN5CC(F)C6)nc4c3F)c12    93.9
CCC(CC)c1cc(NC2CCC(N)C2)n2nccc2n1 (centres undefined) + C=CC(=O)N1CCN(c2nc(OCC3CCCN3C)nc3c(F)c(-c4nc(N)cc(C)c4C(F)(F)F)c(Cl)cc23)C(C)C1    84.8
CC(C)NCC(C(=O)N1CCN(c2ncnc3c2C(C)CC3O)CC1)c1ccc(Cl)cc1 (centres undefined) + C#Cc1c(F)ccc2cc(O)cc(-c3ncc4c(N5CC6CCC(C5)N6)nc(OCC56CCCN5CC(F)C6)nc4c3F)c12    95.1

### Prompt Quick check: viability, T/C on 843782-103-R-J1-PDC complex spheroid viability, item CC1(O)CCCC1n1c(=O)c(C(F)F)cc2cnc(NC3CCN(S(C)(=O)=O)CC3)nc21 (centres undefined) + C#Cc1c(F)ccc2cc(O)cc(-c3ncc4c(N5CC6CCC(C5)N6)nc(OCC56CCCN5CC(F)C6)nc4c3F)c12 ?
### Response 77.5

---

tested on: 843782-103-R-J1-PDC complex spheroid viability; assay: Anticancer human tumor 843782-103-R-J1-PDC cell line growth inhibition [RAS]; conditions: second compound 0.00316 µM; first compound 0.01 µM; stronger effect = lower value;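 note: viability read after seven days of compound exposure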
Catalogue of compounds with associated viability, T/C
Give the number; % is assumed, so skip it.

In the examples that follow, each entry is paired with its recorded viability, T/C.
C=CC(=O)Nc1cc(Nc2nccc(-c3cn(C)c4ccccc34)n2)c(OC)cc1N(C)CCN(C)C + C=CC(=O)N1CCN(c2nc(OCC3CCCN3C)nc3c(F)c(-c4nc(N)cc(C)c4C(F)(F)F)c(Cl)cc23)C(C)C1    90.7
O=C(c1ccc(F)c(F)c1Nc1ccc(I)cc1F)N1CC(O)([C@@H]2CCCCN2)C1 + C=CC(=O)N1CCN(c2nc(OCC3CCCN3C)nc3c(F)c(-c4nc(N)cc(C)c4C(F)(F)F)c(Cl)cc23)C(C)C1    92

Please examine the following record next.
### Prompt I have this compound here, Nc1ccn(C2OC(CO)C(O)C2(F)F)c(=O)n1 (stereo not drawn) + C=CC(=O)N1CCN(c2nc(OCC3CCCN3C)nc3c(F)c(-c4nc(N)cc(C)c4C(F)(F)F)c(Cl)cc23)C(C)C1 , and I need its recorded viability, T/C.
### Response 89.7
